Each recorded value in this set is attributed to patent US12404289B2.

Test system: Respiratory syncytial virus (RSV) strain A2
Protocol: Hep-2 RSV2 384-well assay (EC50-HEP2-384)
Assay type: cell-based
Condition Details: HEp-2 cells, RSV A2, MOI=4, 4 days, Table 3
Just a reminder that ties go to rule not met: only EC50 strictly below 60 nM counts as rule met.

Consider the worked cases shown below.
Compound: CC(C)C(=O)O[C@H]1[C@@H](OC(=O)C(C)C)[C@](C#N)(c2ccc3c(N)ncnn23)O[C@@H]1COP(=O)(N[C@@H](C)C(=O)OCC1CC1)Oc1ccc(C(C)(C)C)cc1 (stereo partly shown) [Example 104b]
Class: rule met
--
Compound: CCC(CC)COC(=O)[C@H](C)N[P@@](=O)(OC[C@H]1O[C@@](C#N)(c2ccc3c(N)ncnn23)[C@H](OC(C)=O)[C@@H]1OC(C)=O)Oc1cccc2c1CCCC2
Class: rule not met
--
Compound: CC(C)C(=O)O[C@H]1[C@@H](OC(=O)C(C)C)[C@](C#N)(c2ccc3c(N)ncnn23)O[C@@H]1COP(=O)(N[C@@H](C)C(=O)OC1CC2(CCCC2)C1)Oc1ccc(C(C)(C)C)cc1 (stereo partly shown) [Example 100b]
Class: rule not met
--
Compound: CC(=O)O[C@H]1[C@@H](OC(C)=O)[C@](C#N)(c2ccc3c(N)ncnn23)O[C@@H]1COP(=O)(N[C@@H](C)C(=O)OC1CCC1)Oc1ccc(C(C)(C)C)cc1 (single isomer, unassigned) [Example 33b]
Class: rule met
--
Compound: CCC(C)(C)CCOC(=O)[C@H](C)NP(=O)(OC[C@H]1O[C@@](C#N)(c2ccc3c(N)ncnn23)[C@H](OC(C)=O)[C@@H]1OC(C)=O)Oc1ccccc1 (stereo partly shown) [Example 106b]
Class: rule met
--
Compound: CCC(=O)O[C@H]1[C@@H](OC(=O)CC)[C@](C#N)(c2ccc3c(N)ncnn23)O[C@@H]1COP(=O)(N[C@@H](C)C(=O)OC1CCC1)Oc1ccc(C(C)(C)C)cc1 (single isomer, unassigned) [Example 32b]
Class: rule met
--
Compound: CC(=O)O[C@H]1[C@@H](OC(C)=O)[C@](C#N)(c2ccc3c(N)ncnn23)O[C@@H]1COP(=O)(N[C@@H](C)C(=O)OCC1CC1)Oc1ccc(C(C)(C)C)cc1 (single isomer, unassigned) [Example 102b]
Class: rule met
--
Compound: CCC(CC)COC(=O)[C@H](C)N[P@@](=O)(OC[C@H]1O[C@@](C#N)(c2ccc3c(N)ncnn23)[C@H](OC(=O)C(C)C)[C@@H]1OC(=O)C(C)C)Oc1cccc2c1CCCC2
Class: rule not met

Shift focus to the following entry.
Quick check: does CCC(=O)O[C@H]1[C@@H](OC(=O)CC)[C@](C#N)(c2ccc3c(N)ncnn23)O[C@@H]1COP(=O)(N[C@@H](C)C(=O)OC1CC2(CCCC2)C1)Oc1ccc(C(C)(C)C)cc1 (stereo partly shown) [Example 99b] have EC50 under 60 nM?
rule not met

* * *

Test system: Respiratory syncytial virus (RSV) strain A2
Protocol: Hep-2 RSV2 384-well assay (EC50-HEP2-384)
Format: cell-based
Condition Details: HEp-2 cells, RSV A2, MOI=4, 4 days, Table 3
Known EC50 of a selection of compounds
I only need the number, in nM, no unit after it.

Please review the entries below; each comes with its answer.
Compound: CCC(CC)COC(=O)[C@H](C)NP(=O)(OC[C@H]1O[C@@](C#N)(c2ccc3c(N)ncnn23)[C@H](O)[C@@H]1O)Oc1cccc2c1CCCC2 (single isomer, unassigned) [Example 135]
EC50 [nM]: 1260
--
Compound: C[C@H](NP(=O)(OC[C@H]1O[C@@](C#N)(c2ccc3c(N)ncnn23)[C@H](O)[C@@H]1O)Oc1ccc(C(C)(C)C)cc1)C(=O)OC1CCC1 (single isomer, unassigned) [Example 31b]
EC50 [nM]: 41.1
--
Compound: CCOC(=O)[C@H](C)NP(=O)(OC[C@H]1O[C@@](C#N)(c2ccc3c(N)ncnn23)[C@H](OC(C)=O)[C@@H]1OC(C)=O)Oc1ccc(C23CC(C2)C3)cc1 (single isomer, unassigned) [Example 42b]
EC50 [nM]: 68.8

For this compound ( C[C@H](NP(=O)(OC[C@H]1O[C@@](C#N)(c2ccc3c(N)ncnn23)[C@H](O)[C@@H]1O)Oc1ccc(C(C)(C)C)cc1)C(=O)OCC1CC1 (stereo partly shown) [Example 101b] ), measured EC50 is 79.2

For this compound ( CCCOC(=O)[C@H](C)NP(=O)(OC[C@H]1O[C@@](C#N)(c2ccc3c(N)ncnn23)[C@H](OC(=O)C(C)C)[C@@H]1OC(=O)C(C)C)Oc1ccc(C(C)(C)C)cc1 (single isomer, unassigned) [Example 48b] ), measured EC50 is 55.4

For this compound ( CCCOC(=O)[C@H](C)NP(=O)(OC[C@H]1O[C@@](C#N)(c2ccc3c(N)ncnn23)[C@H](O)[C@@H]1O)Oc1ccc(C(C)(C)C)cc1 (single isomer, unassigned) [Example 47b] ), measured EC50 is 68.3

For this compound ( CC(=O)O[C@H]1[C@@H](OC(C)=O)[C@](C#N)(c2ccc3c(N)ncnn23)O[C@@H]1COP(=O)(N[C@@H](C)C(=O)OC1CC2(CCCC2)C1)Oc1ccc(C(C)(C)C)cc1 (stereo partly shown) [Example 98b] ), measured EC50 is 52.2

For this compound ( "CCC(CC)COC(=O)[C@H](C)N[P@](=O)(OC[C@H]1O[C@@](C#N)(c2ccc3c(N)ncnn23)[C@H](OC(C)=O)[C@@H]1OC(C)=O)Oc1cccc2c1CCCC2" ), measured EC50 is 737

For this compound ( CCC(CC)COC(=O)[C@H](C)NP(=O)(OC[C@H]1O[C@@](C#N)(c2ccc3c(N)ncnn23)[C@H](O)[C@@H]1O)Oc1cccc2c1CCCC2 (single isomer, unassigned) [Example 136] ), measured EC50 is 377

For this compound ( CCC(=O)O[C@H]1[C@@H](OC(=O)CC)[C@](C#N)(c2ccc3c(N)ncnn23)O[C@@H]1COP(=O)(N[C@@H](C)C(=O)OCCC(C)(C)CC)Oc1ccccc1 (stereo partly shown) [Example 105b] ), measured EC50 is 60.7

* * *

Protocol: CC50 assay (cytopathology in HEp-2 cells)
Type: cell-based
Condition Details: human, HEp-2 cells, 4 days, CellTiter-Glo; Table 1; read-out: RSV CC50
Observation Type: CC50 at 4 days (µM)
I only need the number, in µM, no unit after it.

Please review the entries below; each comes with its answer.
Molecule: CCC(CC)COC(=O)[C@H](C)NP(=O)(OC[C@H]1O[C@@](C#N)(c2ccc3c(N)ncnn23)[C@H](OC(=O)C(C)C)[C@@H]1OC(=O)C(C)C)Oc1ccc(C(C)(C)C)cc1 (some centres unmarked)
CC50 at 4 days [µM]: 2.73

Molecule: CC(=O)O[C@H]1[C@@H](OC(C)=O)[C@](C#N)(c2ccc3c(N)ncnn23)O[C@@H]1COP(=O)(N[C@@H](C)C(=O)OC1CC2(CCC2)C1)Oc1ccc(C(C)(C)C)cc1 (some centres unmarked)
CC50 at 4 days [µM]: 2.31

Molecule: CCOC(=O)[C@H](C)NP(=O)(OC[C@H]1O[C@@](C#N)(c2ccc3c(N)ncnn23)[C@H](OC(C)=O)[C@@H]1OC(C)=O)Oc1ccccc1 (some centres unmarked)
CC50 at 4 days [µM]: 30.9

Molecule: CCOC(=O)[C@H](C)NP(=O)(OC[C@H]1O[C@@](C#N)(c2ccc3c(N)ncnn23)[C@H](OC(=O)C(C)C)[C@@H]1OC(=O)C(C)C)Oc1ccc(C(C)(C)C)cc1 (some centres unmarked)
CC50 at 4 days [µM]: 2.62

For this molecule ( CCOCCOCCOC(=O)[C@H](C)NP(=O)(OC[C@H]1O[C@@](C#N)(c2ccc3c(N)ncnn23)[C@H](OC(=O)C(C)C)[C@@H]1OC(=O)C(C)C)Oc1ccccc1 (some centres unmarked) ), measured CC50 at 4 days is 5.64

For this molecule ( "CCC(CC)COC(=O)[C@H](C)N[P@](=O)(OC[C@H]1O[C@@](C#N)(c2ccc3c(N)ncnn23)[C@H](OC(C)=O)[C@@H]1OC(C)=O)Oc1ccccc1" ), measured CC50 at 4 days is 8.41

For this molecule ( "COC(=O)[C@H](C)N[P@](=O)(OC[C@H]1O[C@@](C#N)(c2ccc3c(N)ncnn23)[C@H](OC(C)=O)[C@@H]1OC(C)=O)Oc1ccccc1" ), measured CC50 at 4 days is 26.4

For this molecule ( COC(=O)[C@H](C)NP(=O)(OC[C@H]1O[C@@](C#N)(c2ccc3c(N)ncnn23)[C@H](OC(=O)C(C)C)[C@@H]1OC(=O)C(C)C)Oc1ccc(C(C)(C)C)cc1 (some centres unmarked) ), measured CC50 at 4 days is 2.84

* * *

Known CC50 at 4 days of a selection of compounds
Protocol: CC50 assay (cytopathology in HEp-2 cells)
Format: cell-based
Condition Details: human, HEp-2 cells, 4 days, CellTiter-Glo; Table 2; read-out: RSV CC50
Description: The cytopathology of compounds in HEp-2 cells is determined in the following manner. HEp-2 cells are suspended in DMEM+GlutaMAX (supplemented with 10% FBS and 1% Penicillin/Streptomycin) and seeded into 96 well plates (3×10^3/well). After a 4-hour incubation at 37° C.+5% CO2, three-fold serial dilutions of compounds are added to each well using an HP D300e digital dispenser. […] Compound-induced cytopathic effect is then assessed by measuring luminescence signal using and Envision plate reader. […]
I only need the number, in µM, no unit after it.

Compound: COC(=O)[C@H](C)N[P@](=O)(OC[C@H]1O[C@@](C#N)(c2ccc3c(N)ncnn23)[C@H](O)[C@@H]1O)Oc1ccccc1
Reading: 48.5

Now look at this entry.
For this compound ( C[C@H](NP(=O)(OC[C@H]1O[C@@](C#N)(c2ccc3c(N)ncnn23)[C@H](O)[C@@H]1O)Oc1ccccc1)C(=O)OC1CCC1 (stereo partly shown) ), measured CC50 at 4 days is 34.2
